Hey, just so you know, these numbers are from PubChem BioAssay (NCI).

test system: SW-620 colon; assay: NCI-60 one-dose screen, 48 h; conditions: 10 µM unless noted
Compounds without any hit were thinned out: in the full panel of roughly 83,000, 20% have a hit. Calls of active or inactive are those of the source. The calls were made as follows: active = growth percent below 10; inactive = the rest.
Tick one outcome: TRUE for active, FALSE for inactive

COMPOUND | ANSWER LABEL
Cc1cnc(SCc2ccc(Cl)cc2)[nH]c1=S | FALSE
O=C1CCC23OC(C(O)c4ccccc4N12)C1C(Br)=NOC13 (configuration not stated) | FALSE
OCCNc1nc(NCCO)nc(Nc2ccc(C3=NN(c4cc(Cl)cc(Cl)c4)C(c4ccc(C(F)(F)F)cc4)C3)cc2)n1 (configuration not stated) | FALSE
COc1cc(/C=C/C(=O)/C=C/c2cc3ccc(Cl)cc3n(Cc3ccccc3)c2=O)ccc1O | TRUE

-- ask // outcome(item) with item = CC(C)C[C@H](C(=O)O)N(C)C(=O)[C@@H]1CCCN1C(=O)[C@H](C)OC(=O)[C@H](CCC(N)=O)NC(=O)[C@@H]1CCC(=O)N1
-- reply FALSE

-- ask // outcome(item) with item = COc1ccc(-c2cn(-c3ccc(Cl)cc3)c(=S)[nH]2)cc1OC
-- reply FALSE

-- ask // outcome(item) with item = Nc1c(C(=O)Nc2cccc3ccccc23)sc2nc3c(cc12)CCCCC3
-- reply FALSE

-- ask // outcome(item) with item = COc1cc(/C=C/C(=O)c2ccc(NC(=O)CSc3nnc(-c4cc(OC)c(OC)c(OC)c4)n3-c3ccccc3)cc2)cc(OC)c1OC
-- reply TRUE

-- ask // outcome(item) with item = COC(=O)c1ccc2c(c1)NC(=O)[C@@H]1CCCN21
-- reply FALSE

-- ask // outcome(item) with item = O=C1CCC23OC(c4ccccc4N12)C(O)C(O)C3O (configuration not stated)
-- reply FALSE

-- ask // outcome(item) with item = COC(=O)c1cncc(C(=O)Nc2ccc(-n3cnc4ccccc43)cc2)c1
-- reply FALSE

-- ask // outcome(item) with item = COc1ccc2oc(=O)cc(-c3c(C#N)c(N)n4nc(N)c(C#N)c4c3C#N)c2c1
-- reply FALSE

-- ask // outcome(item) with item = O=C1[C@@H](OS(=O)(=O)CC(F)(F)F)[C@H](c2ccc(F)cn2)N1c1cc2c3ccccc3ccc2c2ccccc12
-- reply FALSE

-- ask // outcome(item) with item = CCOC(=O)c1cnn(-c2nc(-c3ccc(F)cc3)c(C#N)c(N3CCOCC3)n2)c1N
-- reply FALSE

-- ask // outcome(item) with item = Cc1cccc(C)c1NC(=O)CN(CC(C)C)CC(O)COc1ccccc1 (configuration not stated)
-- reply FALSE

-- ask // outcome(item) with item = C#CCN1C(=O)c2ccccc2N(CC#C)C12CCN(Cc1cn(CC(=O)Nc3ccccc3C(N)=O)nn1)CC2
-- reply FALSE

-- ask // outcome(item) with item = O=c1[nH]c2ccccc2cc1-c1nc2ccc(Cl)cc2[nH]1
-- reply FALSE

###

system: NCI/ADR-RES ovarian; assay: NCI-60 one-dose screen, 48 h (100 = growth as untreated, 0 = no growth, -100 = all killed); settings: 10 µM unless noted
The panel holds about 83,000 compounds, 20% with a hit somewhere; the sample as a whole holds those more often.
Would you mind telling me the reported growth of each entry?
Answers are plain numbers, in %.

COMPOUND | METRIC | UNIT SYMBOL | READING
O=c1[nH]nc(-c2ccccc2)c2sc(NC(=S)Nc3ccc(Cl)cc3)nc12 | growth | % | 95.3
C=C(C)[C@@H]1CC[C@]2(C(=O)n3ccnc3)CC[C@]3(C)[C@H](CC[C@@H]4[C@@]5(C)CCCNC(C)(C)[C@@H]5CC[C@]43C)[C@@H]12 | growth | % | 32.9
COc1ccc(/C=C/C(=O)/C=C(/C=C/c2ccc(OC)c(OC)c2)OB(F)F)cc1OC | growth | % | 30.1
O=C1NC(SCc2ccc(F)cc2)=N/C1=C/c1cccc(OCc2ccc(Cl)cc2)c1 | growth | % | 65.8
COc1ccc(/C(=N\O)c2cc(C)c(OC)c(C)c2)cc1O | growth | % | 28.6
C=C(C)[C@@H]1CC[C@]2(C(=O)OCCOCCOCC[P+](c3ccccc3)(c3ccccc3)c3ccccc3)CC[C@]3(C)[C@H](CC[C@@H]4[C@@]5(C)CC[C@H](OC(=O)C(Cl)Cl)C(C)(C)[C@@H]5CC[C@]43C)[C@@H]12 | growth | % | 50.2
CN1CCN(C(=O)[C@@]2(C)CC[C@]3(C)CC[C@]4(C)C(=CC[C@@H]5[C@@]6(C)CC[C@H](OC(=O)c7cccnc7)C(C)(C)[C@@H]6CC[C@]54C)[C@@H]3C2)CC1 | growth | % | 77.6
C=C1C(=O)O[C@H]2[C@H]1CC/C(COC(=O)c1cc3ccccc3o1)=C\CC[C@@]1(C)O[C@@H]21 | growth | % | 14.2
C=C(C)[C@@H]1CC[C@]2(C(=O)O)CC[C@]3(C)[C@H](CC[C@@H]4[C@@]5(C)C[C@@H](CC#Cc6ccccc6C)C(=O)C(C)(C)[C@@H]5CC[C@]43C)[C@@H]12 | growth | % | 48
CCCCOc1nc2ccc(C)cc2cc1/C=C/C(=O)/C=C/c1ccc2c(c1)OCO2 | growth | % | 91.7

Please look at the items below and tell me growth for each one, in order.
1. COc1cc(C(=O)Nc2cc(O)c(C/C=C(\C)CCC=C(C)C)c(O)c2)cc2c1O[C@]1(C)CC[C@@H](O)C(C)(C)[C@H]1C2
2. N#CC1C(c2ccc(Cl)cc2)=Nc2c(c(-c3ccccc3)nn2-c2ccccc2)C12C(=O)Nc1ccc(Cl)cc12 (centres undefined)
3. O=C1C(Cl)=C(Nc2ccc3c(c2NC2=C(Cl)C(=O)c4ccccc4C2=O)C(=O)c2ccccc2C3=O)C(=O)c2ccccc21
4. O=c1[nH]nc(-c2ccc(Br)cc2)c2sc(NC(=S)Nc3ccc(Cl)cc3)nc12
5. Cc1cc(C)c2nc(Nc3nc(C)c(C)c(=O)[nH]3)nc(C)c2c1
6. COc1ccc2nc(-c3ccc(Cl)cc3)cc(-c3nnc(SCC(=O)Nc4ccc(/C(C)=N\O)cc4)o3)c2c1

-- reply
57.7
67.6
7.89
80
40.8
1.11

Please look at the items below and tell me growth for each one, in order.
1. Nc1ccc2c(c1)C(=O)C(=O)c1c-2nc2ccccn12
2. CCOc1ccccc1C(=O)/C=C/c1cc2ccccc2[nH]c1=O
3. COc1ccc(C(=O)c2cc(OC)c(C)c(OC)c2)cc1OC(=O)CCl

-- reply
11.7
-4.24
10.5
